Catalogue of GI50 readings, one per entry.
System: UACC-257
Experiment: NCI tumour cell line growth inhibition, 48 h
Calls of active or inactive are those of the source. Rule as the data show it: active = GI50 up to about 1.1 µM and inactive = higher.

# COMPOUND, GI50
measured = [
    ("Cc1cc(Cl)ccc1NC1=NC(=O)C(CC(=O)Nc2cccc(Cl)c2)S1 (stereo not drawn)", "38.8 µM (inactive)"),
    ("CCCCCCCC/C=C\\CCCCCCCC(=O)OC[C@]1(CO)CCC(=O)O1", "> 100 µM (inactive)"),
    ("Cn1ccnc1S/C(=C\\C=C(C#N)C#N)c1ccc(Cl)cc1", "2.1 µM (inactive)"),
    ("COc1ccc(NCc2c(O)ccc3ccccc23)cc1", "18.4 µM (inactive)"),
    ("COc1ccc(C(=O)c2sc(Nc3ccccc3)nc2N)cc1", "> 100 µM (inactive)"),
    ("COc1ccc(C(=O)Cn2c(C(C)=O)nc3ccccc32)cc1", "30.4 µM (inactive)"),
    ("NCCNCC1CCNCC1", "> 100 µM (inactive)"),
    ("CCCCn1c(C)c(C)c2c1NN=C(C#N)S2(=O)=O", "> 100 µM (inactive)"),
    ("CC(/C=N/N=C1NCCCN1)=N\\N=C1NCCCN1", "> 100 µM (inactive)"),
    ("COc1ccc(C(O)c2ccc3c(c2)OCO3)cc1 (stereo not drawn)", "> 100 µM (inactive)"),
    ("COc1cc(C2(c3ncc[nH]3)SSSCC2O)ccc1O (stereo not drawn)", "18.4 µM (inactive)"),
    ("CC#CC(=O)SCCNC(=O)CC", "> 10 µM (inactive)"),
    ("CC1(C)CCCCCC(O)C(O)CCC(C)(C)C1=O (stereo not drawn)", "> 100 µM (inactive)"),
]
